For each of the molecules below, state its TGI.
Tested on: BT-549 breast
Assay: NCI tumour cell line growth inhibition, 48 h

Return reported TGI. Input molecule: CCOP(=O)(OCC)/C(=C/NC(=S)c1ccncc1)C(=O)OC > 100 µM

Note TGI for the molecule shown: O=C(Nc1ccccc1)c1cc2ccccc2c(N=Nc2ccc([N+](=O)[O-])cc2)c1O > 100 µM

Read off the recorded TGI for Nc1nc(N)c2cc(-c3ccccc3)cnc2n1 30.2 µM

Answer with the recorded TGI of COC(=O)[C@]12CC[C@H]3CC[C@H]([C@H]31)[C@H](c1ccccc1)N2 only. 34.3 µM

Note TGI for the molecule shown: CC1(C)CCc2c(c(N=Nc3ccc(S(N)(=O)=O)cc3)c3ccccc3c2O)O1 29.1 µM

Query TGI for COc1ccc(-c2cc(-c3cccn3C)c(C#N)c(=O)[nH]2)cc1OC > 100 µM

* * *

System: SN12C renal
Test: NCI tumour cell line growth inhibition, 48 h
Task for the reader: assign each of the following molecules its reported TGI.
Give just the number in µM; leave the unit off.

Supply TGI value. Item: COc1cccc(C2c3cc4c(cc3OC(N3CCOCC3)C2C)OCO4)c1OC (stereo not given) 48.4

Recall and state the measured TGI for CC(C)C[C@H](NC(=O)Cn1ccc(NCc2ccccc2)cc1=O)B(O)O . 54.8

Answer with reported TGI of Cc1occc1C(=S)Nc1ccc(Cl)c(C(=O)OC(C(C)C)C(C)C)c1 30.9

Note down TGI recorded for CC1=C[C@]2(O)C(=O)[C@H](C)C[C@H]3[C@@H](CC[C@@](C)(O)/C=C\2C1=O)C3(C)C 41.5

* * *

Tested on: COLO 205 colon
Assay: NCI tumour cell line growth inhibition, 48 h
Test readout: GI50

Name the recorded GI50 of the item COc1ccc(NC([Se])=NC23CC4CC(CC(C4)C2)C3)cc1 in your answer. 1.66 µM

// Input: O=c1cc(N2CCN(CCCCCOc3cc(O)c4c(=O)cc(-c5ccccc5)oc4c3)CC2)c2ccccc2o1 . Output its GI50 only. 70.5 µM

Provide GI50 value for the following compound: COc1cc2ncn(-c3cc(O[C@@H](C)c4ccccc4Cl)c(C(N)=O)s3)c2cc1OC 0.444 µM

Identify the reported GI50 for the following entry. c1cc(N2CCCN(c3ccc(C4=NCCCN4)cc3)CC2)ccc1C1=NCCCN1 > 100 µM

Determine from records and report GI50 for O=C(O)c1ccc(Oc2nccc(-c3c(-c4ccc(F)cc4)ncn3C3CCNCC3)n2)cc1 > 25 µM

Return the recorded GI50 value; entry: COC(=O)CC[C@]1(C)O[C@H]2[C@H]([C@@H](C)CCCC(C)=O)OC(=O)[C@@H]2C[C@H]1O > 100 µM

* * *

Tested on: M14 melanoma
Assay: NCI tumour cell line growth inhibition, 48 h
Test readout: TGI

// fetch TGI given entry O=C(Nc1ccc(Cl)cc1Cl)C1C(=O)C(=O)N(c2ccc(Cl)cc2Cl)C1=O (stereo unspecified) > 100 µM

For the compound C=C(CN1CCN(c2cccc(C(F)(F)F)n2)CC1)c1ccc(C(=O)Nc2ccccc2N)cc1 , report TGI. > 100 µM

Determine its reported TGI: O=C(Nc1ccccc1)c1cc2ccccc2c(N=Nc2ccc([N+](=O)[O-])cc2)c1O > 100 µM

Specify TGI for CC(C)(C)[Si](C)(C)Oc1cc(CO)cc2c1cc(=N)o[n+]2[O-] and stop. > 10 µM

Tell us which TGI value is on record for Nc1nc(N)c2cc(-c3ccccc3)cnc2n1 57.7 µM

For O=C1c2ccccc2CN1c1ccc(OCCN2CCCCC2)cc1 , write its TGI. > 10 µM

Please report the measured TGI for Cc1ccc(/C(O)=C/c2nc3c(nc2NC24CC5CC(CC(C5)C2)C4)c(=O)oc2ccccc23)cc1 > 100 µM

Could you please provide reported TGI for O=C(O)C1CCCCC1C(=O)Nn1cnnc1 (stereo unspecified) ? Thanks! > 100 µM

Please report the measured TGI for Clc1nssc1=Nc1nonc1-c1ccccc1 37.2 µM

Please report TGI for the following compound: C=C1C(=O)O[C@H]2[C@H]1CC/C(COC(=O)c1cc3ccccc3o1)=C\CC[C@@]1(C)O[C@@H]21 3.13 µM

Give TGI for the following compound: Cc1cccc(C)c1CO > 100 µM

* * *

System: MDA-N
Assay: NCI tumour cell line growth inhibition, 48 h
Test readout: TGI (µM)
Give the quantity in µM, number only.

Please give measured TGI of the following entry: COC(=O)C1=CSC2(S1)C(C(=O)OC)=CSc1c2ssc1=O (centres undefined) 4.92

Return TGI for the following compound: CC1=CC[C@H](C(C)C)C(C(O)[C@@H](C)O[Si](c2ccccc2)(c2ccccc2)C(C)(C)C)C1=O (some centres undefined) 53

Annotate the compound O=C(c1c(F)c(F)c(F)c(F)c1F)N1CCN(C(=O)c2c(F)c(F)c(F)c(F)c2F)C1=S with its measured TGI. 6.54

Please give the documented TGI of C=C1C(=O)O[C@@H]2[C@@H]3O[C@@H](C[C@@H]13)[C@](C)(O)CC/C=C(\C)CCC[C@@H]2C 18.3

* * *

Give TGI for every item shown.
Test system: M14 melanoma
Experiment: NCI tumour cell line growth inhibition, 48 h
// return numeric value only (unit: µM, not printed)

# return recorded TGI for entry COc1cc(N2CCC(N3CCN(C)CC3)CC2)ccc1Nc1ncnc(Nc2ccccc2S(=O)(=O)C(C)C)n1 16.6

Provide measured TGI value, entry: O=S(=O)(NCCCNc1nccc(-c2c(-c3ccc(F)c(O)c3)nc3sccn23)n1)c1ccc(F)cc1 3.14

Hello, please tell me recorded TGI for this one: CCCCCCCCCCCCCCCCCCN(C)C(COC)COP(=O)([O-])OCC[N+](C)(C)C (stereo not given) 13.7

Please indicate TGI recorded for C=C1C(=O)O[C@@H]2[C@@H]3O[C@@H](C[C@@H]13)[C@](C)(O)CC/C=C(\C)CCC[C@@H]2C 27

* * *

Tested on: A549 NSCLC
Test: NCI tumour cell line growth inhibition, 48 h
Test readout: TGI

Give TGI for the following compound: O=C(c1ccccc1)c1c(-c2ccccc2)sc2nc3ccccc3nc12 > 100 µM

Read off the recorded TGI for O=c1cc(N2CCN(CCCCCOc3cc(O)c4c(=O)cc(-c5ccccc5)oc4c3)CC2)c2ccccc2o1 > 100 µM

Recall and state the measured TGI for COC(=O)[C@]12CC[C@H]3CC[C@H]([C@H]31)[C@H](c1ccccc1)N2 . 37.3 µM

Provide TGI value for the following compound: CS(=O)(=O)CCNCc1ccc(-c2ccc3ncnc(Nc4ccc(OCc5ccccc5)c(Br)c4)c3c2)o1 > 25 µM

Read off the recorded TGI for CC(C)OP(=O)(OC(C)C)c1nc(-c2ccccc2)n(-c2ccc([N+](=O)[O-])cc2)n1 > 100 µM

Supply recorded TGI for O=C1C=CC(=O)C12CCc1ccccc12 here. > 100 µM

Query TGI for Clc1ccc(OCc2nnc(CCCCCCCCc3nnc(COc4ccc(Cl)cc4Cl)n3Nc3ccccc3)n2Nc2ccccc2)c(Cl)c1 64.4 µM

Fill in reported TGI for this entry: C#CCOCn1cnc2c(Sc3c([N+](=O)[O-])ncn3C)ncnc21 > 100 µM

Report TGI for N#CC(C#N)=C/C=C(\Sc1c(Cl)c(Cl)nc(Cl)c1Cl)c1ccc(Cl)cc1 > 100 µM

Read off the recorded TGI for O=[N+]([O-])c1ccc(N=Nc2c(O)ccc3ccccc23)c([N+](=O)[O-])c1 > 100 µM

* * *

I'd appreciate it if you could supply TGI values for the items below.
Test system: SN12C renal
Assay: NCI tumour cell line growth inhibition, 48 h
Numbers only here, please. The scale is µM.

Tell us which TGI value is on record for CCCCN1CN2C(=O)C(C(=O)OCC)C(=O)c3sc4nc(SC)nc1c4c32 (stereo not given) 34.1

Determine from records and report TGI for C/C(=N\Nc1cc(C)c2ccccc2n1)c1ccccn1 7.57

* * *

Task for the reader: assign each of the following compounds its reported TGI.
Tested on: CCRF-CEM leukemia
Assay: NCI tumour cell line growth inhibition, 48 h
Report the value in µM with no unit label.

Hello, please tell me recorded TGI for this one: COc1cc2c(cc1OC)-c1ccc3cc4c(cc3c1N(CCCn1ccnc1)C2)OCO4 21.4

Tell me TGI reported for C=CCN1C(=O)/C(=C\c2cc(C(C)(C)C)c(O)c(C(C)(C)C)c2)NC1=S 20.4

Check the records and state TGI for C/C(=N\Nc1cc(C)c2ccccc2n1)c1ccccn1 0.571

Could you please provide reported TGI for COC(=O)C1=CSC2(S1)C(C(=O)OC)=CSc1c2ssc1=O (stereo unspecified) ? Thanks! 2.47

* * *

System: BT-549 breast
Assay: NCI tumour cell line growth inhibition, 48 h
Test readout: TGI

// Input: CC(=C/C=C/C=C(C)\C=C\C=C(\C)C(=O)O)/C=C/C=C(/C)C(=O)O . Output its TGI only. > 100 µM

Supply reported TGI belonging to this molecule: CN(C)CCCNc1ccc2c(=O)n(CCN(C)C)c(=O)n3c4ccccc4c(=O)c1c23 0.369 µM

Supply reported TGI belonging to this molecule: COc1c(OC(C)C)c(OC(C)C)c2oc(=O)n3c2c1C(c1ccccc1-n1c(C)ccc1C)C=C3 (centres undefined) > 100 µM

State its TGI for this molecule: CCN1C(=O)C(=C/C=C/C=C2/N(C)c3ccccc3C2(C)C)C(=O)N(CC)C1=S 70.9 µM

Could you please provide reported TGI for CCCCN1CN2C(=O)C(C(=O)OCC)C(=O)c3sc4nc(SC)nc1c4c32 (centres undefined) ? Thanks! 30.6 µM

Please list TGI recorded for the molecule O=C(O)CCCSc1ccccc1 > 100 µM

Kindly indicate its recorded TGI. Item: COc1cc2nc(-c3cccs3)nc(N3CCN(c4ccccc4C(F)(F)F)CC3)c2cc1OC > 100 µM

Name the recorded TGI of the molecule listed here: c1ccc(C2=NCCN2)c(C2=NCCN2)c1 > 100 µM

Provide measured TGI value, entry: O=C(N/N=C/c1c(-c2ccccc2)no[n+]1[O-])N1CCOCC1 > 100 µM

# return recorded TGI for entry O=C(O)c1ccc(Oc2nccc(-c3c(-c4ccc(F)cc4)ncn3C3CCNCC3)n2)cc1 > 25 µM

Tell me TGI reported for O=S(=O)(NCCCNc1nccc(-c2c(-c3ccc(F)c(O)c3)nc3sccn23)n1)c1ccc(F)cc1 7.14 µM

Dear colleague, please send me the reported TGI for COc1ccc(-c2c3c(cc4cc5c(cc24)OCO5)C(=O)OC3)cc1OC when you can. 22.3 µM

Give the value of TGI reported for the following: CC(=O)[C@@H]1C/C(=C\OCc2ccccc2)O[C@H]1C > 100 µM

Retrieve TGI measured for Nc1nc2c(c(=O)[nH]1)C(c1ccccc1)CC(=O)N2 (centres undefined) and print it. > 100 µM

Identify measured TGI associated with CC(=O)O/C=C1/C[C@H]2[C@@H]3CCC4CC(C(C)=O)CC[C@]4(C)[C@H]3CC[C@]2(C)C1=O (some centres undefined) > 100 µM

Specify TGI for Cc1ccc2c(-c3ccnc(Nc4ccccc4)n3)c(-c3ccc(F)cc3)nn2n1 and stop. > 25 µM

Output TGI of C=C(NC(=O)C(=C)NC(=O)c1csc(C2=NC3c4csc(n4)C4NC(=O)c5csc(n5)C(C(C)(O)C(C)O)NC(=O)C5CSC(=N5)C(=CC)NC(=O)C(C(C)O)NC(=O)c5csc(n5)C3(CC2)NC(=O)C(C)NC(=O)C(=C)NC(=O)C(C)NC(=O)C(C(C)CC)NC2C=Cc3c(C(C)O)cc(nc3C2O)C(=O)OC4C)n1)C(N)=O (centres undefined) 4.71 µM

Supply TGI value. Item: CC(C)C[C@H](NC(=O)Cn1ccc(NCc2ccccc2)cc1=O)B(O)O 2.59 µM

Given the molecule CCC(=O)Nc1ccccc1C#C/C=C\C#Cc1ccccc1SC , write its reported TGI. > 100 µM
